Here, each record is paired with measured CC50 data.
# protocol: cytotoxicity assay (MTT, CC50)
# Format: cell-based
# runParameters: human, HepDE19 cells

Example molecules with recorded CC50:
O=C(CN(c1cc(C(F)(F)F)ccc1F)S(=O)(=O)c1ccccc1)NCc1ccncc1
> 50 µM
CN(Cc1ccccc1)S(=O)(=O)c1ccc(C(=O)Nc2ccc3ncsc3c2)cc1
34.1 µM
O=C(CN(c1cc(C(F)(F)F)ccc1Cl)S(=O)(=O)c1ccccc1)N1CCc2cnccc2C1
> 50 µM
O=C(CN(c1cc(C(F)(F)F)ccc1Cl)S(=O)(=O)c1ccc(F)cc1)NCc1ccncc1
> 50 µM
O=C(NCc1ccncc1)c1cc2ccccc2n1S(=O)(=O)c1ccccc1
> 50 µM
O=C(NCc1ccncc1)C1CCCN1S(=O)(=O)c1ccccc1 (stereo not shown)
> 50 µM

Entry CC(C)(C)CC(=O)NCCNC(=O)CN(c1cc(C(F)(F)F)ccc1F)S(=O)(=O)c1ccccc1 , CC50 reported as 28.4 µM

====

# protocol: cytotoxicity assay (MTT, CC50)
# Format: cell-based
# runParameters: human, HepDE19 cells
# Description: Cell plates were then incubated with compound dilutions and controls as described above, and addition of 3-[4,5-dimethylthiazol-2-yl]-2,5-diphenyltetrazolium bromide (MTT, Sigma-Aldrich) was added to a final concentration of 0.5 mg/ml (Mosmann, T. 1983). […] Absorbance was read in the Rainbow spectrophotometer (Tecan US Inc., Durham, N.C.) at 570 nm (reference wavelength of 630 nm), and analyzed with XLfit 4.0 as described above.
// CC50 lookup, one value per entry

Past entries and their recorded results:
O=C(CN(c1cc(C(F)(F)F)ccc1Cl)S(=O)(=O)c1ccccc1)NCc1ccncc1
> 50 µM
O=C(CN(c1cc(Cl)ccc1F)S(=O)(=O)c1ccccc1)NCc1ccncc1
> 50 µM

// below: CC50 requested for another compound
In plain terms, O=C(CN(c1cc(C(F)(F)F)ccc1Cl)S(=O)(=O)c1ccccc1)NCc1cncnc1 has a documented CC50 of > 50 µM
